tested on: P388 leukemia ip, CD2F1 mice, survival T/C; assay: NCI In Vivo Anticancer Drug Screen. Data for tumor model P388 Leukemia (intraperitoneal) in CD2F1 (CDF1) mice; conditions: endpoint: median survival time; dose: 12.5 mg/kg/injection; schedule: Q01DX009 (ip); vehicle: distilled water + Tween-80; higher = longer survival
Toxic doses and inconclusive results are not listed.
Readout Label: T/C

// known answers, use as guide
> print(dat)
                           compound          reported
1  CCOC(=O)c1ccc(NC(=O)Nc2nncs2)cc1  119 % of control
2            Cc1nc(C(=O)O)cc(Cl)c1C  100 % of control

Q. What measured T/C goes with "COC(=O)Cn1ccnc1[N+](=O)[O-]" ?
A. 100 % of control

Q. For the compound CCOC(=O)C1CC(=O)c2ccccc2C1 (stereo unspecified) , what T/C is on record?
A. 96 % of control

Q. Value lookup for T/C; key = "CCOC(=O)Nc1nncs1"
A. 103 % of control

Q. I have this compound here, CCC[As](CCC)SC1OC(C2COC(C)(C)O2)C2OC(C)(C)OC12 (stereo unspecified) , and I need its recorded T/C.
A. 100 % of control
